Form field: Kd (one value per entry).
# SYSTEM TESTED: T1, human GITR expressed on cells (human, UniProt Q9Y5U5 26-241)
# T1 construct: whole, on cells; Used for HEK293 transfectants and for PHA-stimulated human PBMCs; also called hGITR; cell surface hGITR
# T1 sequence (looked up): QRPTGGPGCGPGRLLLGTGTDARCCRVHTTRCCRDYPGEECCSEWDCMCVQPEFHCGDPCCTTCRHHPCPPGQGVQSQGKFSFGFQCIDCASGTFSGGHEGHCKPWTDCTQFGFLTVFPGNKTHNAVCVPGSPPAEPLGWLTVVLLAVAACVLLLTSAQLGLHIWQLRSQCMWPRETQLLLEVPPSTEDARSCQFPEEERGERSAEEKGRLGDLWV
# PROTOCOL SUMMARY: Meso Scale assay, Sulfo-conjugated antibody on coated HEK293-Trex-hGITR cells
ENDPOINT LABEL: Kd (nM)

binder="anti-GITR antibody clone 1649 (antibody, V domains shown, Murine hybridoma antibody; also called 1649-GITR2; 1649 GITR-2) VH: EVQLQQSGTVLAGPGTSVKMSCEASGYSFTTYWIHWIKQRPGQGLEWIGAIYPGNSDAGYNQKFKGKAKLTAVTSASTAYMELSSLTNEDSAVYYCTRSSTYPHFDYWGQGTTLTVSS VL: DILLTQSPAILSVSPGERVSFSCRASQSIGTSIHWYQQRTNDSPRLLIKYASESISGIPSRFSGSGSGTDFTLNINSVESEDIADYYCQQTNNWPLTFGAGTKLELK" endpoint_result=5.38
binder="anti-GITR antibody clone 827 (antibody, V domains shown, Murine hybridoma antibody; also called 827-GITR2; 827 GITR-2) VH: EVQLQQSGTVLARPGASVKMSCETSGYSFTTYWIHWIKQRPGQGLEWIATIYPGNSDAGYNQKFRGKAKLTAVTSASTAYMELSSLTNEDSAVYYCTRSSTYPHFDYWGQGTTLTVSS VL: DILLTQSPAILSVSPGERVSFSCRASQSIGTSIHWYQQRTNDSPRLLIKYASESISGIPSRFSGSGSGTDFTLNINSVESEDIADYYCQQTNNWPLTFGAGTKLELK" endpoint_result=4.44
